- experimental target: DLG4_3, P78352
- Sequence (P78352 306-403): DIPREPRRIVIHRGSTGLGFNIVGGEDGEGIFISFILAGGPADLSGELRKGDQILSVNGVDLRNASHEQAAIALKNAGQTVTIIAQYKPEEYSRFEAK
- experiment notes: holdup assay
- Set-up: key: below the threshold = too weak to quantify, mostly under pKd 3.1 to 4
- stated conditions: plain residues with an end cap or a label only (N-terminal biotin on a linker: ado-ado)
reported metric: pKd

[[record]]
binder = "FNSYSLTGYV [CLDN2, P57739]"
result = "below the threshold"

[[record]]
binder = "PRAEAEDSFL [PDGFRB, P09619]"
result = "below the threshold"

[[record]]
binder = "PEYLGLDVPV [ERBB2, P04626]"
result = "below the threshold"

[[record]]
binder = "RHGSCVETSL [TMEM151B, Q8IW70]"
result = 4.11

[[record]]
binder = "LKVPPEERLI [CRB2, Q5IJ48]"
result = "below the threshold"

[[record]]
binder = "LRSPRTPSEV [OR10G3, Q8NGC4]"
result = "below the threshold"

[[record]]
binder = "QSARLWETSI [ADAM22, Q9P0K1]"
result = 4.23

[[record]]
binder = "KSGKQTMLVV [TRIM29, Q14134;Q14134-2]"
result = "below the threshold"

[[record]]
binder = "QKNRKAQEDL [CES3, Q6UWW8]"
result = "below the threshold"

[[record]]
binder = "VNKSKLLTDV [KCNA1, Q09470]"
result = 3.53


The measured values listed here are drawn from paper PMC9482650.
